- System: SK-MEL-28
- procedure_summary: Growth inhibition of human SK-MEL-28 cells after 48 hrs by sulforhodamine B assay
- Assay type: functional
- test_conditions: SK-MEL-28, 48 h
Field 'label' (enum: T / F). Set to T when GI50 is strictly under 20 µM; else F.

Answered examples (4):
Dear reviewer, please state whether "COc1cc(C(=O)N2CCN(C(=O)c3cc(OC)c(OC)c(OC)c3)C2=S)cc(OC)c1OC" has GI50 strictly beneath 20 µM.
T

Dear reviewer, please state whether "O=C(c1ccc(Cl)c(Cl)c1)N1CCN(C(=O)c2ccc(Cl)c(Cl)c2)C1=S" has GI50 strictly beneath 20 µM.
F

Dear reviewer, please state whether "CCOC(=O)/C(=C/N1CCN(C(=O)c2ccco2)C1=S)C(=O)c1ccccc1" has GI50 strictly beneath 20 µM.
F

Dear reviewer, please state whether "N#C/C(=C\N1CCN(C(=O)c2ccco2)C1=S)C(=O)Nc1ccc(Cl)cc1" has GI50 strictly beneath 20 µM.
T

More entries:
Dear reviewer, please state whether "O=C(c1cccs1)N1CCN(C(=O)c2cccs2)C1=S" has GI50 strictly beneath 20 µM.
T

Dear reviewer, please state whether "O=C(c1ccco1)N1CCN(C(=O)c2ccco2)C1=S" has GI50 strictly beneath 20 µM.
T

Dear reviewer, please state whether "COC(=O)/C(C#N)=C/N1CCN(C(=O)c2ccco2)C1=S" has GI50 strictly beneath 20 µM.
T
